Biological target: Amine oxidase [flavin-containing] B (Rattus norvegicus)
Sequence (P19643 whole entry): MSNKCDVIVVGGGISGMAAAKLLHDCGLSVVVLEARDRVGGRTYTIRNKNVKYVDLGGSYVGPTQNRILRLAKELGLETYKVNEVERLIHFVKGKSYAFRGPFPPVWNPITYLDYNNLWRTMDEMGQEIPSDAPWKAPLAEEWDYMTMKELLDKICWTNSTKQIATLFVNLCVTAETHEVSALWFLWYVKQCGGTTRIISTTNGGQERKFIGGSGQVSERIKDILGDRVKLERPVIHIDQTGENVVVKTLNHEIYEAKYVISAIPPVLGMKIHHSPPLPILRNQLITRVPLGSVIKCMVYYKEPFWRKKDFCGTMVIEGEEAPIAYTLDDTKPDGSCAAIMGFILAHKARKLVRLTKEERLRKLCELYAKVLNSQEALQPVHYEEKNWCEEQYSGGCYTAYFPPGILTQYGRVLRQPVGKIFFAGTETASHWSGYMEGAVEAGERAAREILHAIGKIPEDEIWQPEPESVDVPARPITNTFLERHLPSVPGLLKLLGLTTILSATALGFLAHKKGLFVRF
Assay: Inhibitory activity against Monoamine oxidase B
Experimental Endpoint: pKi
In textbook form, pKi equals minus log to base ten of the concentration in mol/L.

Please review the following examples before continuing.
>  <Smiles Str>
C#CCNCc1cc2cc(OCc3ccccc3)ccc2[nH]1

>  <Study System>
Amine oxidase [flavin-containing] B (Rattus norvegicus)

>  <pKi>
9.12

$$$$
>  <Smiles Str>
C#CCNCc1cc2cc(OC)ccc2n1C

>  <Study System>
Amine oxidase [flavin-containing] B (Rattus norvegicus)

>  <pKi>
8.40

$$$$
>  <Smiles Str>
C#CCN(C)Cc1cc2cc(OC)ccc2n1C

>  <Study System>
Amine oxidase [flavin-containing] B (Rattus norvegicus)

>  <pKi>
7.52

$$$$
>  <Smiles Str>
C#CCN(Cc1ccccc1)Cc1cc2ccccc2n1C

>  <Study System>
Amine oxidase [flavin-containing] B (Rattus norvegicus)

>  <pKi>
4.22

$$$$
>  <Smiles Str>
c1ccc(CNCc2cn(Cc3ccccc3)c3ccccc23)cc1

>  <Study System>
Amine oxidase [flavin-containing] B (Rattus norvegicus)

>  <pKi>
3.44

$$$$
>  <Smiles Str>
CC#CCN(C)Cc1cc2cc(OC)ccc2n1C

>  <Study System>
Amine oxidase [flavin-containing] B (Rattus norvegicus)

>  <pKi>
6.43

$$$$
>  <Smiles Str>
C#CCN(C)Cc1cn(Cc2ccccc2)c2ccccc12

>  <Study System>
Amine oxidase [flavin-containing] B (Rattus norvegicus)

>  <pKi>
3.32

$$$$
>  <Smiles Str>
C#CCN(C)Cc1cc2cc(O)ccc2n1C

>  <Study System>
Amine oxidase [flavin-containing] B (Rattus norvegicus)

>  <pKi>
6.09

$$$$

Request: Entry under review: c1ccc(CNCc2cc3ccccc3[nH]2)cc1 . Reported pKi?
Response: 3.80

Request: What pKi value was documented for this compound, CC#CCN(C)Cc1cc2cc(O)ccc2n1C ?
Response: 5.06

Request: Return reported pKi; argument: C#CCNCc1cc2ccccc2n1C
Response: 5.42

Request: Using the record for CNCc1cn(Cc2ccccc2)c2ccccc12 , report its pKi.
Response: 3.47

Request: Quick one: pKi of CC#CCNCc1cc2cc(OCc3ccccc3)ccc2[nH]1 ?
Response: 7.82
